src = ChEMBL document CHEMBL3991943

# experimental protocol: Tmax in male rat at 5 mg/kg, iv
# Format: ADME, organism-based
# stated conditions: in vivo

molecule	measure unit	Tmax
Cl.S=C(NCc1ccc2c(c1)OCO2)N1CCN(c2ncnc3c2oc2ccccc23)CC1 [AMUVATINIB HYDROCHLORIDE]	min	5

* * *

# experimental protocol: Cmax in female rat at 5 mg/kg, iv at 5 mins
# Format: ADME, organism-based
# Parameters: dose 5 mg/kg, route intravenous
# stated conditions: in vivo
measurement kind: Cmax (ng/mL)

molecule	measurement kind	observed
Cl.S=C(NCc1ccc2c(c1)OCO2)N1CCN(c2ncnc3c2oc2ccccc23)CC1 [AMUVATINIB HYDROCHLORIDE]	Cmax	371

* * *

In this section we review reported solubility values for a set of compounds.
# experimental protocol: Solubility of the compound in water by HPLC analysis
# Type: physicochemical

smiles entry	solubility
O=S(=O)(O)O.S=C(NCc1ccc2c(c1)OCO2)N1CCN(c2ncnc3c2oc2ccccc23)CC1	3.3 µg/mL
O=S(=O)(O)c1ccccc1.S=C(NCc1ccc2c(c1)OCO2)N1CCN(c2ncnc3c2oc2ccccc23)CC1	4.26 µg/mL
CS(=O)(=O)O.S=C(NCc1ccc2c(c1)OCO2)N1CCN(c2ncnc3c2oc2ccccc23)CC1	5.96 µg/mL
Cc1ccc(S(=O)(=O)O)cc1.S=C(NCc1ccc2c(c1)OCO2)N1CCN(c2ncnc3c2oc2ccccc23)CC1	1.87 µg/mL

* * *

# experimental protocol: Tmax in rat at 25 mg/kg administered via oral gavage
# Type: ADME, organism-based
# stated conditions: in vivo

compound	Tmax
Cl.S=C(NCc1ccc2c(c1)OCO2)N1CCN(c2ncnc3c2oc2ccccc23)CC1 [AMUVATINIB HYDROCHLORIDE]	0.5 to 12 h

* * *

# experimental protocol: Solubility of the compound in glycerol
# Assay type: physicochemical
measurement kind: solubility (µg/mL)

compound	observed
Cl.S=C(NCc1ccc2c(c1)OCO2)N1CCN(c2ncnc3c2oc2ccccc23)CC1 [AMUVATINIB HYDROCHLORIDE]	4000
